- Test system: human liver microsomes, metabolic stability half-life
- Experimental Details: NCATS Human Liver Microsomal (HLM) Stability Profiling
- Stated Conditions: higher = more stable; screened at 1 µM (by protocol)
Mark NOT MET for half-life values under 20 min, and MET for everything at or above.

Study these solved cases before continuing.
{"columns": ["Molecule", "Class Label"],
 "data": [
  ["Cn1c(N2CCCCS2(=O)=O)nc(C(=O)NCc2ccc(F)cc2)c(O)c1=O", "MET"],
  ["Clc1cccc(C(c2ccc3nc[nH]c3c2)n2ccnc2)c1 (stereo unspecified)", "MET"],
  ["COc1cc2nc(=NC(=O)c3cccnc3)n3c(c2cc1OC)NCC3", "MET"]
]}

Record "CNC(=O)c1cc(Oc2ccc(NC(=O)Nc3ccc(Cl)c(C(F)(F)F)c3)cc2)ccn1" ; criterion: half-life no lower than 20 min. Met?
MET

Then "O=C(Nc1ncc([N+](=O)[O-])s1)c1cccs1" ?
MET

Then "COc1ccc(CNc2nc(N(CCO)CCO)nc3c2ncn3C(C)C)cc1" ?
MET

---

Consider the following compounds and their measured half-life readings.
- Test system: human liver microsomes, metabolic stability half-life
- Experimental Details: NCATS Human Liver Microsomal (HLM) Stability Profiling
- Stated Conditions: higher = more stable; screened at 1 µM (by protocol)

Some solved cases for reference:
{"columns": ["Smiles Entry", "Observed"],
 "data": [
  ["COc1ccc(CCC(C)=O)cc1", "> 120 min"],
  ["CCOP(=S)(OCC)Oc1ccc2c(C)c(Cl)c(=O)oc2c1", "5.07 min"],
  ["CC(C)Cc1ccc(CC(=O)O)cc1", "> 120 min"],
  ["Cc1ccc(NC(=O)Nc2cccs2)c(C)c1", "23.8 min"],
  ["Cn1c(=O)c2c(nc(CN3CCN(C(=O)C4CC4)CC3)n2Cc2ccccc2Cl)n(C)c1=O", "24.1 min"],
  ["Nc1ncnc2c1ncn2[C@H]1O[C@@H](C(=O)N2CCN(CC(=O)Nc3cccc4c3CNC4=O)CC2)[C@H](O)[C@@H]1O", "> 120 min"],
  ["CCOP(=S)(OCC)Oc1cc(Cl)c(Br)cc1Cl", "57.6 min"],
  ["Nc1ccn([C@@H]2O[C@H](CO)[C@H](O)C2(F)F)c(=O)n1", "22.3 min"],
  ["COc1ccc(C(=O)c2ccccc2O)c(O)c1", "8.9 min"],
  ["CC(C)(C)NCc1cc(Nc2ccnc3cc(Cl)ccc23)c2c(c1O)CCCC2", "> 120 min"]
]}

Please report the recorded half-life for "Cn1ncc(Cl)c1-c1cc(C(=O)N[C@H](CN)Cc2ccc(F)c(F)c2)sc1Cl" .
109 min

---

Consider the following compounds and their measured half-life readings.
- Tested on: human liver microsomes, metabolic stability half-life
- Experimental Details: NCATS Human Liver Microsomal (HLM) Stability Profiling
- Stated Conditions: higher = more stable; screened at 1 µM (by protocol)
- Description: Assay submitter (PI): Dr. Pranav Shah NIH Center for Advancing Translational Sciences Pharmacokinetic issues were the leading cause of drug attrition, accounting for approximately 40% of all cases before the turn of the century. […] The substrate depletion method, also called the in vitro t1/2 method was used to analyze test compounds. […] Sample quantification and analysis was performed using a previously described method (Shah et al., 2016, Siramshetty et al., 2020). […]
Give just the number in min; leave the unit off.

Some solved cases for reference:
{"columns": ["Compound", "half-life (min)"],
 "data": [
  ["CN(C)N(C)C(=O)[C@@]1(Cc2ccccc2)CCCN(C(=O)[C@@H](Cc2c[nH]c3ccccc23)NC(=O)C(C)(C)N)C1", 12.6],
  ["CCOc1ccc(CNC(=O)Cn2c(=O)c3cccn3c3ccc(F)cc32)cc1OC", 80.7],
  ["CC1=C(C(=O)Nc2cc3cn[nH]c3cc2F)C(c2ccc(Cl)cc2F)N=C(c2ccnc(Cl)c2)N1 (configuration not stated)", 14.2],
  ["COc1ccc(CCNC(=O)CCc2c(C)c3cc4c(C)coc4cc3oc2=O)cc1", 5.41],
  ["CNC(=O)c1ccccc1Nc1nc(Nc2ccc(N3CCOCC3)cc2OC)ncc1Cl", 34.9]
]}

Kindly state the measured half-life obtained for "Cc1oc(=O)oc1COC(=O)[C@@H]1N2C(=O)[C@@H](NC(=O)[C@H](N)c3ccccc3)[C@H]2SC1(C)C" with human liver microsomes, metabolic stability half-life.
12.2

Then "COc1ccc(CNC(=O)c2cnn(-c3ccc(C)cc3)c2C2CCN(C(=O)OC(C)(C)C)CC2)cc1" ?
0.7

Then "COc1cc(=O)n2c(c1C(=O)NCc1ccc3c(c1)OCO3)CCN(C(=O)c1ccc(C)cc1C)CC2" ?
34.4

Then "CO[C@@H](Cc1ccc(OCCc2nc(-c3ccccc3)oc2C)c2ccsc12)C(=O)O" ?
72.2

Then "CCN(C(=O)c1sc2cc(OC)ccc2c1Cl)c1ccccc1" ?
3.3

Then "Clc1ccc(CO/N=C(\Cn2ccnc2)c2ccc(Cl)cc2Cl)c(Cl)c1" ?
55.1

Then "COc1ccc(-c2cc(=S)ss2)cc1" ?
0.73

Then "O=[N+]([O-])c1cccc(S(=O)(=O)NCCNS(=O)(=O)c2cccc([N+](=O)[O-])c2)c1" ?
52.3
